- tested system: murine SR-BI (Mus musculus, UniProt Q61009)
- Construct: expressed in transfected cells; host or cells: ldlA-7 (LDL receptor deficient Chinese hamster ovary cells)
- Sequence (Q61009 1-509): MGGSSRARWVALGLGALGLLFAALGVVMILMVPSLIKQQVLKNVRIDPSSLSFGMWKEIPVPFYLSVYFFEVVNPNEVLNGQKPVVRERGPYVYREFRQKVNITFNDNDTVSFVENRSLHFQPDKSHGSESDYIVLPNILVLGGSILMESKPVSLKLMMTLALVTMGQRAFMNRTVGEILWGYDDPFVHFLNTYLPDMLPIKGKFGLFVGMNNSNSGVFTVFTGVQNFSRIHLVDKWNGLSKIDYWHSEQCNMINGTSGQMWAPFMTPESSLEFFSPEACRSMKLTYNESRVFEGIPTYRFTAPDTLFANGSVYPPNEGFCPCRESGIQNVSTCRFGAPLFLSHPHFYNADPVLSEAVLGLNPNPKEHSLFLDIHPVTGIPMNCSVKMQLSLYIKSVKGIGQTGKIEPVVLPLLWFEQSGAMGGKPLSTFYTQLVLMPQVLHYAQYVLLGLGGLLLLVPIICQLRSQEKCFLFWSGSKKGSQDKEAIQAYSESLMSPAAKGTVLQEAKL
- test method notes: Uptake of DiI from DiI-HDL by ldlA[mSR-BI] cells (high throughput screen and concentration dependence)
- Format: cell-based
- protocol conditions: Test 2
Quick rule: ENDOHDL Test 2 of at least 0.6 means fulfilled, below that means not fulfilled.

- compound: "CCN1/C(=C/c2sc3ccccc3[n+]2CC)Sc2ccccc21.Cc1ccc(S(=O)(=O)[O-])cc1 [MIT 9952-267]"
  label class: "fulfilled"
- compound: "NC(=S)Nc1ccc2c(c1)Nc1ccccc1CC2 [MIT 9952-175]"
  label class: "not fulfilled"
- compound: "CCN(CC(O)COc1ccccc1C(C)=O)S(=O)(=O)O.[Na+] (stereo not drawn) [MIT 9952-62]"
  label class: "fulfilled"
- compound: "CCN(CC)CC(=O)Nc1ccc2c(c1)N(C(=O)c1ccccc1)c1ccccc1CC2.Cl [MIT 9952-178]"
  label class: "not fulfilled"
- compound: "C/C(=C\\C(=O)NCCc1c[nH]c2ccccc12)C(=O)O [MIT 9952-76]"
  label class: "fulfilled"
- compound: "COc1ccc(COCC(Cl)CN2CCCCC2)cc1OC.Cl (stereo not drawn) [MIT 9952-159]"
  label class: "fulfilled"
- compound: "c1ccc(-c2cc3c(ccc4nonc43)[nH]2)cc1 [MIT 9952-262]"
  label class: "not fulfilled"
- compound: "CC1=C(C(=O)OCc2ccccc2)C(c2ccc(N(C)C)cc2)NC(=O)N1 (stereo not drawn) [MIT 9952-163]"
  label class: "fulfilled"

Check the entry CCS(=O)(=O)C(=C(Nc1ccc(OC)cc1)Nc1ccc(OC)cc1)S(=O)(=O)CC [MIT 9952-57] : does ENDOHDL Test 2 equal or exceed 0.6? fulfilled

Say whether COC(=O)Cn1c2c(c3cc(C)ccc31)CCCC2NC(C)c1ccccc1 (stereo not drawn) [MIT 9952-180] shows ENDOHDL Test 2 of 0.6 or more. not fulfilled

Has O=C(O)CSC1CCCC/C1=N\Nc1ccc([N+](=O)[O-])cc1[N+](=O)[O-] (stereo not drawn) [MIT 9952-84] a recorded ENDOHDL Test 2 greater than or equal to 0.6? fulfilled

Hi team, for CC(C)(C)c1ccc(C(=O)Nc2ccccc2C(=O)O)cc1 [MIT 9952-48] , is the recorded ENDOHDL Test 2 at or above 0.6? not fulfilled

Check the entry Cc1cccc(C(=O)N/N=C/c2ccccc2Cl)c1 [MIT 9952-194] : does ENDOHDL Test 2 equal or exceed 0.6? not fulfilled

Could you verify whether the entry COc1ccc2c(c1)c(C(C)=O)c(C)n2-c1ccccc1 [MIT 9952-212] shows ENDOHDL Test 2 of no less than 0.6? not fulfilled

Given [O-][n+]1onc2c3cc(-c4ccccc4)[nH]c3ccc21 [MIT 9952-59] , state whether its ENDOHDL Test 2 is at least 0.6. not fulfilled

Does COc1ccc([N+](=O)[O-])cc1NC(=S)NC(NC(=O)C(c1ccccc1)c1ccccc1)C(Cl)(Cl)Cl (stereo not drawn) [MIT 9952-140] have a reported ENDOHDL Test 2 of at least 0.6? not fulfilled

Is reported ENDOHDL Test 2 greater than or equal to 0.6 here: Cc1ccc2c(c1)/C(=C/c1ccc([N+](=O)[O-])cc1)c1cccnc1-2 [MIT 9952-246] not fulfilled
